test: S. cerevisiae RM11-1a growth modifiers, primary screen, strain RM11-1a, OD600, basal, 24 h (AID 1177); conditions: OD600, 24 h, higher = more signal, called active from +8 up or from −8 down;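 note: cultures grown under basal conditions with no added stressor; test concentration not given here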

smiles_entry	z-score
CCCC=C(CCC)[C@@H](NS(=O)(=O)c1cccs1)c1ccc(C(=O)OC)cc1	1.59
O=C(c1ccccc1)N1Cc2ccccc2[C@@H]2OC(c3ccc(OCCCO)cc3)=N[C@]2(Cc2ccccc2)C1=O	0.843
CCOC(=O)C[C@H]1[C@H](OC(=O)Cc2ccc3c(c2)OCO3)[C@@H](NC(=O)c2ccc(-c3ccccc3)cc2)c2cc(OCCCO)ccc2N1C(=O)Cc1ccc(OC)cc1	-1.82
C=CCNC(=O)[C@H]1[C@@H]2C(=O)O[C@@H](c3ccccc3)[C@@H](c3ccccc3)N2[C@@H](c2ccccc2OCCO)[C@]12C(=O)Nc1ccc(C#CC3=CCCCC3)cc12	3.11
